Tested on: UO-31 renal
experimental-details: NCI tumour cell line growth inhibition, 48 h
property-measured: TGI

Take a look at these entries with their results.
- compound: "O=CC(O)C(O)C1OC(=O)c2cc(O)c(O)c(O)c2C2=C(O)C(O)=C3OC(=O)c4c(c(O)c(O)c5c4C3C2C(=O)O5)-c2c(cc(O)c(O)c2O)C(=O)OCC1O (stereo not given)"
  test-result: "> 100 µM"
- compound: "N#CC(C(=N/O)/C(=N\\O)C(C#N)c1ccccc1)c1ccccc1 (stereo not given)"
  test-result: "> 100 µM"
- compound: "CC(C)=CCC/C(C)=C/Cc1c(O)c(C)cc2c1[nH]c1cc(O)ccc12"
  test-result: "> 25 µM"
- compound: "COC(=O)c1ccc(NC(=O)c2ccc(NC3=C(Cl)C(=O)N(Cc4ccccc4)C3=O)cc2)cc1"
  test-result: "31.7 µM"
- compound: "CN(C)N=Nc1cccc(C(N)=O)c1"
  test-result: "> 100 µM"
- compound: "Cc1ccc(-c2c3c(nn2-c2ccc(S(=O)(=O)NC(=O)NC4CCCCC4)cc2)-c2ccccc2C3)cc1"
  test-result: "2.64 µM"

Query block: Recorded TGI for Cc1c(NC(=O)CSC(=S)N(C)C)c(=O)n(-c2ccccc2)n1C with UO-31 renal, please?
Result block: > 100 µM

Query block: Please tell me: TGI of CN(C)c1cc2c(Nc3ccc4c(cnn4Cc4ccccc4)c3)ncnc2cn1 , system UO-31 renal?
Result block: > 18.4 µM

Query block: Please tell me: TGI of C[C@@H](NC(=O)Cn1c(Cl)nc2ccccc21)c1ccccc1 , system UO-31 renal?
Result block: > 100 µM

Query block: Lab request: please report TGI under test system UO-31 renal for COc1ccc2c(C)cc(N/N=C/c3ccc(C)s3)nc2c1
Result block: 35.4 µM

---

Test system: RXF 393 renal
experimental-details: NCI tumour cell line growth inhibition, 48 h
property-measured: GI50

Examples with answers:
- compound: "COC(=O)c1c2c(c(C)[n+]([O-])c1C)C(=O)C(NCc1ccc(F)cc1)=CC2=O"
  target-system: "RXF 393 renal"
  test-result: "1.56 µM"
- compound: "COc1c(B(O)O)cccc1-c1nc2ccc3[nH]ncc3c2c2c1CCCC2"
  target-system: "RXF 393 renal"
  test-result: "0.0225 µM"
- compound: "[Cl][Hg][c]1ccc2ccccc2c1"
  target-system: "RXF 393 renal"
  test-result: "1.62 µM"
- compound: "Cc1ccc(-c2c3c(nn2-c2ccc(S(=O)(=O)NC(=O)NC4CCCCC4)cc2)-c2ccccc2C3)cc1"
  target-system: "RXF 393 renal"
  test-result: "23.3 µM"
- compound: "CC[C@]1(O)C[C@H]2CN(CCc3c([nH]c4ccccc34)[C@@](C(=O)OC)(c3cc4c(cc3OC)N(C)[C@H]3[C@@](O)(C(=O)OC)[C@H](OC(C)=O)[C@]5(CC)C=CCN6CC[C@]43[C@@H]65)C2)C1"
  target-system: "RXF 393 renal"
  test-result: "0.00135 µM"

Query block: API: value(readout=GI50, system=RXF 393 renal) for record c1csc(-c2ccc(CNc3c4ccccc4nc4ccccc34)cc2)c1
Result block: 1.25 µM

Query block: Recall the recorded GI50 for CN(C)c1cccc(OC(=O)NCCCl)c1 with RXF 393 renal and state it.
Result block: > 100 µM

Query block: Identify the measured GI50 of Cc1cc2c3c([n+](C)c4ccc(F)cc4c3c1)-c1cc(F)ccc1N2C for RXF 393 renal.
Result block: > 100 µM

---

System: COLO 205 colon
experimental-details: NCI tumour cell line growth inhibition, 48 h
Reported TGI values are given for each entry in this list.
# unit: µM | format: bare number

Query block: Could you share which TGI value was measured for O=C(N/N=C/c1cc(Cl)ccc1O)c1ccccc1Nc1ccnc(C(F)(F)F)c1 ?
Result block: 13

Query block: Form field: reported TGI of CC(=O)c1c2c(cc3c1CC1(Cc4cc5c(cc4C1)C(=O)CCC5)C3)CCCC2 (stereo not given)
Result block: 21.7

Query block: Quick check: TGI of Cc1ccc(C(C)C)c(OCC(=O)N/N=C/c2c[nH]c3ccc(Br)cc23)c1 ?
Result block: 3.55

Query block: Would you mind telling me what TGI value was observed for Cc1c(Cl)cccc1NC(=O)c1sc2nc3c(cc2c1N)C(=O)CCC3 ?
Result block: 0.344

Query block: Can you share its TGI? I mean this compound: [Cl][Hg][c]1ccc2ccccc2c1
Result block: 5.18

Query block: For the compound CC(C)c1[nH]nc2c(NCc3ccc(-c4ccccn4)cc3)nc(SCCN(C)C)nc12 , what TGI is on record?
Result block: 0.0297

---

Test system: HOP-92 NSCLC
experimental-details: NCI tumour cell line growth inhibition, 48 h
property-measured: TGI

- molecule: "CCOC(=O)C(=O)Nc1c(C)cccc1C(C)(C)C"
  test-result: "> 100 µM"
- molecule: "COC(=O)CSc1nc2[nH]c(SC)c(C(N)=O)c2c(=O)n1-c1ccccc1"
  test-result: "> 10 µM"
- molecule: "C[C@@H](CS[As](C)C)C(=O)N1CCC[C@H]1C(=O)O"
  test-result: "0.542 µM"
- molecule: "CN(C)N=Nc1cccc(C(N)=O)c1"
  test-result: "> 100 µM"
- molecule: "Nn1c(-c2cccc(Cl)c2)nc2ccccc2c1=O"
  test-result: "> 100 µM"
- molecule: "COc1c(B(O)O)cccc1-c1nc2ccc3[nH]ncc3c2c2c1CCCC2"
  test-result: "6.56 µM"

Query block: Entry NC(Cc1cccnn1)C(=O)O (configuration not stated) has what TGI?
Result block: > 100 µM

---

Tested on: NCI-H460 lung
experimental-details: NCI tumour cell line growth inhibition, 48 h
property-measured: TGI

See these solved cases before continuing.
- compound: "CCOC(=O)/C(C#N)=C\\Sc1ccccc1"
  property-measured: "TGI"
  test-result: "83.1 µM"
- compound: "C[C@@H](CS[As](C)C)C(=O)N1CCC[C@H]1C(=O)O"
  property-measured: "TGI"
  test-result: "13.7 µM"

Query block: Which value of TGI has been reported for O=C1C(Cl)=C(Nc2cc(Cl)ccc2O)C(=O)N1Cc1ccccc1 in the records?
Result block: 34.3 µM

Query block: TGI lookup needed for CCCS(=O)c1nc(COC(=O)NC)c(COC(=O)NC)n1C (stereo unspecified) , thanks.
Result block: > 100 µM

Query block: Any idea what its TGI is? The compound is Cc1c(NC(=O)CSC(=S)N(C)C)c(=O)n(-c2ccccc2)n1C
Result block: > 100 µM

Query block: Please report the recorded TGI for CC(=O)c1c2c(cc3c1CC1(Cc4cc5c(cc4C1)C(=O)CCC5)C3)CCCC2 (stereo unspecified) .
Result block: 67.2 µM

Query block: Form field: reported TGI of CN1C(=O)[C@H](c2c[nH]c3ccccc23)[C@H](c2c[nH]c3ccccc23)C1=O
Result block: > 50.1 µM

Query block: Please give the measured TGI for this compound: Cn1cc(C2=C(c3cc[nH]c3)C(=O)NC2=O)c2ccccc21
Result block: > 25 µM

---

Test system: OVCAR-5 ovarian
experimental-details: NCI tumour cell line growth inhibition, 48 h
Entries and their measured TGI follow.

- compound: "COc1ccc2nc3n(c2c1)C(c1c(F)cccc1F)SC3 (centres undefined)"
  target-system: "OVCAR-5 ovarian"
  TGI: "> 100 µM"
- compound: "O=C(Cn1c2c(c3ccccc31)CCCC2)N1CCCCC1"
  target-system: "OVCAR-5 ovarian"
  TGI: "> 100 µM"
- compound: "O=C(CSC(c1ccccc1)c1ccccc1)N/N=C/c1ccccc1Cl"
  target-system: "OVCAR-5 ovarian"
  TGI: "> 73.2 µM"
- compound: "O=C(Cn1c(C(=O)/C=C/c2ccc(Cl)cc2)nc2ccccc21)c1ccc(Cl)cc1"
  target-system: "OVCAR-5 ovarian"
  TGI: "64.1 µM"
- compound: "Cc1nc2c(O)c3c(c(O)c2nc1C)C1C=CC3CC1"
  target-system: "OVCAR-5 ovarian"
  TGI: "34.9 µM"

Query block: Please give the measured TGI for this compound: O=c1[nH]nc(-c2ccccc2)n1-c1cccc([N+](=O)[O-])c1
Result block: > 100 µM

Query block: For the compound shown here, CCOC(=O)c1c(N2CCOCC2)ncn(-c2cccc(Cl)c2)c1=O , give the reported TGI.
Result block: > 100 µM

---

Tested on: HS 578T breast
experimental-details: NCI tumour cell line growth inhibition, 48 h
property-measured: GI50

Past entries and their recorded results:
- molecule: "CC(C)(O)CCc1cccc(C(=O)c2cnn(-c3ccc(F)cc3)c2N)c1"
  test-result: "> 25000 nM"
- molecule: "CCn1cc(C(=O)N/N=C/c2cccs2)c(=O)c2cc(F)c(N3CCNC(C)C3)c(F)c21 (stereo unspecified)"
  test-result: "14100 nM"
- molecule: "Cc1ccc(N=Nc2c(O)ccc3n[nH]nc23)cc1"
  test-result: "10900 nM"
- molecule: "CC(C)(C)C(=O)c1c(C(F)(F)F)n([O-])c2cc(Cl)c(Cl)cc2[n+]1=O"
  test-result: "160 nM"

Query block: Quick one: GI50 for c1cc(C2CCCCC2)ccc1-c1cnc2nonc2n1 ?
Result block: 1020 nM

Query block: Returns the measured GI50 for the input molecule. Input: O=C(N/N=C/c1cc(Cl)ccc1O)c1ccccc1Nc1ccnc(C(F)(F)F)c1
Result block: 1150 nM
